Data provenance: patent US20030004172A1

Target: MMP-13CD (catalytic domain of collagenase-3) (Homo sapiens, UniProt P45452)
Assay: Thiopeptolide substrate hydrolysis inhibition assay, MMP-13CD
Format: biochemical
Settings: Table I; thiopeptolide substrate, HEPES pH 7.0, 22° C.; read-out: MMP-13CD IC50
pIC50: −log10 of the molar value.
Value type: pIC50

Please review the following examples before continuing.
>  <Compound>
COc1cccc(CNC(=O)c2cc3c(=O)n(CCS(=O)(=O)c4ccc(C)cc4)c(=O)n(C)c3s2)c1 [Example 293]

>  <pIC50>
< 4.00

$$$$
>  <Compound>
CCOCCOCCOC(=O)c1cc2c(=O)n(Cc3ccccc3)c(=O)n(C)c2s1 [Example 177]

>  <pIC50>
< 4.00

$$$$

Please turn your attention to the following entry.
Problem: Kindly state the measured pIC50 obtained for O=C(OCCc1ccccc1)c1cc2c(=O)n(Cc3ccccc3)c(=O)[nH]c2s1 [Example 12] with MMP-13CD (catalytic domain of collagenase-3) (Homo sapiens, UniProt P45452).
Result: < 4.00

---

Target: MMP-13CD (catalytic domain of collagenase-3) (Homo sapiens)
Experiment: Thiopeptolide substrate hydrolysis inhibition assay, MMP-13CD
Type: biochemical
Details: Table I; thiopeptolide substrate, HEPES pH 7.0, 22° C.; read-out: MMP-13CD IC50
Description: Thiopeptolide substrates show virtually no decomposition or hydrolysis at or below neutral pH in the absence of a matrix metalloproteinase enzyme.
pIC50: −log10 of the molar value.
Decide using pIC50: a value greater than or equal to 5 is class 1, a smaller one is class 0.

Some solved cases for reference:
>  <Molecule>
COc1cc(CNC(=O)c2cc3c(=O)n(Cc4ccccc4)c(=O)n(C)c3s2)cc(OC)c1OC [Example 331]

>  <Category>
class 0

$$$$
>  <Molecule>
COc1ccc(CCNC(=O)c2cc3c(=O)n(Cc4ccccc4)c(=O)n(C)c3s2)cc1OC [Example 320]

>  <Category>
class 0

$$$$
>  <Molecule>
Cn1c(=O)n(Cc2ccccc2)c(=O)c2cc(C(=O)NCCCCc3ccccc3)sc21 [Example 338]

>  <Category>
class 0

$$$$
>  <Molecule>
Cn1c(=O)n(Cc2ccccc2)c(=O)c2cc(C(=O)OCC3CCC3)sc21 [Example 157]

>  <Category>
class 0

$$$$
>  <Molecule>
Cn1c(=O)n(Cc2ccccc2)c(=O)c2cc(C(=O)OCc3ccccc3)oc21 [Example 97]

>  <Category>
class 0

$$$$

Problem: Answer whether pIC50 of Cn1c(=O)n(Cc2ccccc2)c(=O)c2cc(C(=O)OCc3c(F)cccc3Cl)sc21 [Example 190] is greater than or equal to 5.
Result: class 0

Problem: Answer whether pIC50 of Cc1c(C(=O)OCc2ccccc2)sc2[nH]c(=O)n(Cc3ccc(Cl)c(Cl)c3)c(=O)c12 [Example 310] is greater than or equal to 5.
Result: class 0

Problem: Answer whether pIC50 of COc1ccc(CNC(=O)c2cc3c(=O)n(CCCCCC#N)c(=O)n(C)c3s2)cc1 [Example 257] is greater than or equal to 5.
Result: class 1

Problem: Answer whether pIC50 of COc1cccc(Cn2c(=O)c3cc(C(=O)OCc4ccccc4)sc3n(C)c2=O)c1 [Example 98] is greater than or equal to 5.
Result: class 1

Problem: Answer whether pIC50 of O=C(NCc1ccccc1)c1cc2c(=O)n(Cc3ccccc3)c(=O)[nH]c2s1 [Example 3] is greater than or equal to 5.
Result: class 0

Problem: Answer whether pIC50 of C=C(Cn1c(=O)c2cc(C(=O)OCc3ccccc3)sc2n(C)c1=O)C(=O)O [Example 114] is greater than or equal to 5.
Result: class 1

Problem: Answer whether pIC50 of Cn1c(=O)n(Cc2ccccc2)c(=O)c2cc(C(=O)NCCc3ccc(Cl)cc3Cl)sc21 [Example 363] is greater than or equal to 5.
Result: class 0

Problem: Answer whether pIC50 of COc1ccc(CNC(=O)c2cc3c(=O)[nH]c(=O)n(C)c3s2)cc1 [Example 216] is greater than or equal to 5.
Result: class 0

Problem: Answer whether pIC50 of Cn1c(=O)n(Cc2ccccc2)c(=O)c2cc(C(=O)OCC3CCCCO3)sc21 (stereo not shown) [Example 178] is greater than or equal to 5.
Result: class 0

Problem: Answer whether pIC50 of Cn1c(=O)n(Cc2ccccc2)c(=O)c2cc(C(=O)NCc3ccccc3)sc21 [Example 148] is greater than or equal to 5.
Result: class 1

---

Value type: melting point

Please review the following examples before continuing.
>  <Compound>
Cc1ccc(-n2c(=O)[nH]c3sc(C(=O)OCc4ccccc4)c(C)c3c2=O)cc1 [Example 7]

>  <Value type>
melting point

>  <Assay value>
267 to 269 °C

$$$$
>  <Compound>
O=C(OCc1ccncc1)c1cc2c(=O)n(Cc3ccccc3)c(=O)[nH]c2s1 [Example 2]

>  <Value type>
melting point

>  <Assay value>
248 to 250 °C

$$$$
>  <Compound>
Cc1c(C(=O)OCc2ccccc2)sc2[nH]c(=O)n(CCc3ccccc3)c(=O)c12 [Example 5]

>  <Value type>
melting point

>  <Assay value>
207 to 209 °C

$$$$
>  <Compound>
O=C(OCc1ccc(/C=C/c2ccccc2)cc1)c1cc2c(=O)n(Cc3ccccc3)c(=O)[nH]c2s1 [Example 4]

>  <Value type>
melting point

>  <Assay value>
247 to 249 °C

$$$$
>  <Compound>
COc1cccc(CNC(=O)c2cc3c(=O)n(CC#N)c(=O)n(C)c3s2)c1 [Example 224]

>  <Value type>
melting point

>  <Assay value>
159 to 163 °C

$$$$

Problem: // lookup melting point for COc1ccc(CNC(=O)c2cc3c(=O)n(Cc4ccc(/C(N)=N/O)cc4)c(=O)n(C)c3s2)cc1 [Example 220]
Result: 226 to 228 °C (dec.)

Problem: // lookup melting point for O=C(NCc1ccccc1)c1cc2c(=O)n(Cc3ccccc3)c(=O)[nH]c2s1 [Example 3]
Result: > 255 °C

Problem: // lookup melting point for CCn1c(=O)n(Cc2ccccc2)c(=O)c2cc(C(=O)OCc3ccccc3)sc21 [Example 73]
Result: 147 to 148 °C

Problem: // lookup melting point for COC(=O)/C=C/Cn1c(=O)c2cc(C(=O)NCc3ccc(OC)cc3)sc2n(C)c1=O [Example 225]
Result: 169 to 171 °C

Problem: // lookup melting point for O=C(OCc1ccccc1)c1cc2c(=O)n(Cc3ccccc3)c(=O)[nH]c2s1 [Example 1]
Result: 195 to 197 °C

Problem: // lookup melting point for Cn1c(=O)n(Cc2ccccc2)c(=O)c2cc(C(=O)OCc3ccccc3)sc21 [Example 9]
Result: 143 to 145 °C

---

Molecular target: MMP-13CD (catalytic domain of collagenase-3) (Homo sapiens, UniProt P45452)
Assay: Thiopeptolide substrate hydrolysis inhibition assay, MMP-13CD
Type: biochemical
Settings: Table I; thiopeptolide substrate, HEPES pH 7.0, 22° C.; read-out: MMP-13CD IC50
This section presents molecules with their documented pIC50 values.
Keep in mind that pIC50 stands for -log10 of concentration in molar terms.

Please review the following examples before continuing.
>  <Molecule>
COc1cccc(COC(=O)c2cc3c(=O)n(Cc4ccccc4)c(=O)n(C)c3s2)c1 [Example 192]

>  <pIC50>
8.47

$$$$
>  <Molecule>
COc1ccc(CNC(=O)c2cc3c(=O)n(Cc4ccc(F)cc4)c(=O)n(C)c3s2)cc1 [Example 60]

>  <pIC50>
6.80

$$$$

Please turn your attention to the following entry.
Problem: // lookup pIC50 for Cc1ccc(Cn2c(=O)c3cc(C(=O)OCc4ccccc4)sc3n(C)c2=O)cc1 [Example 103]
Result: 7.52

---

Target: MMP-13CD (catalytic domain of collagenase-3) (Homo sapiens)
Test: Thiopeptolide substrate hydrolysis inhibition assay, MMP-13CD
Format: biochemical
Settings: Table I; thiopeptolide substrate, HEPES pH 7.0, 22° C.; read-out: MMP-13CD IC50
Value type: pIC50
Keep in mind that pIC50 stands for -log10 of concentration in molar terms.

>  <Compound>
COc1cc(CNC(=O)c2cc3c(=O)[nH]c(=O)n(C)c3s2)ccn1 [Example 219]

>  <Target entity>
MMP-13CD (catalytic domain of collagenase-3) (Homo sapiens)

>  <Value type>
pIC50

>  <Assay value>
4.77

$$$$

Problem: // lookup pIC50 for Cn1c(=O)n(Cc2ccccc2)c(=O)c2cc(C(=O)NCc3ccc(Cl)cc3Cl)sc21 [Example 329]
Result: 4.52

Problem: // lookup pIC50 for COc1cc(CNC(=O)c2cc3c(=O)n(CC4CCCCC4)c(=O)n(C)c3s2)ccn1 [Example 371]
Result: 6.66

Problem: // lookup pIC50 for COc1ccc(CNC(=O)c2cc3c(=O)n(Cc4ccc(/C(N)=N/O)cc4)c(=O)n(C)c3s2)cc1 [Example 220]
Result: 7.21

Problem: // lookup pIC50 for CC(CO)Cn1c(=O)c2cc(C(=O)OCc3ccccc3)sc2n(C)c1=O (centres unmarked) [Example 134]
Result: 5.82

Problem: // lookup pIC50 for COc1ccc(CNC(=O)c2cc3c(=O)n(CCC(=O)c4ccc(F)cc4)c(=O)n(C)c3s2)cc1 [Example 270]
Result: 5.74

Problem: // lookup pIC50 for Cn1c(=O)n(Cc2ccccc2)c(=O)c2cc(C(=O)NCc3ccc(Br)cc3)sc21 [Example 350]
Result: 6.03

Problem: // lookup pIC50 for COc1cccc(CNC(=O)c2cc3c(=O)n(Cc4ccccc4)c(=O)n(C)c3s2)c1 [Example 343]
Result: 7.36

Problem: // lookup pIC50 for COC(=O)c1ccc(Cn2c(=O)c3cc(C(=O)NCc4cccc(OC)c4)sc3n(C)c2=O)cc1OC [Example 240]
Result: 6.74
